Recorded values, source paper PMC6222666.

Molecular target: VEGFR2 (vascular endothelial growth factor receptor 2) (Homo sapiens)
Sequence (P35968 20-1356): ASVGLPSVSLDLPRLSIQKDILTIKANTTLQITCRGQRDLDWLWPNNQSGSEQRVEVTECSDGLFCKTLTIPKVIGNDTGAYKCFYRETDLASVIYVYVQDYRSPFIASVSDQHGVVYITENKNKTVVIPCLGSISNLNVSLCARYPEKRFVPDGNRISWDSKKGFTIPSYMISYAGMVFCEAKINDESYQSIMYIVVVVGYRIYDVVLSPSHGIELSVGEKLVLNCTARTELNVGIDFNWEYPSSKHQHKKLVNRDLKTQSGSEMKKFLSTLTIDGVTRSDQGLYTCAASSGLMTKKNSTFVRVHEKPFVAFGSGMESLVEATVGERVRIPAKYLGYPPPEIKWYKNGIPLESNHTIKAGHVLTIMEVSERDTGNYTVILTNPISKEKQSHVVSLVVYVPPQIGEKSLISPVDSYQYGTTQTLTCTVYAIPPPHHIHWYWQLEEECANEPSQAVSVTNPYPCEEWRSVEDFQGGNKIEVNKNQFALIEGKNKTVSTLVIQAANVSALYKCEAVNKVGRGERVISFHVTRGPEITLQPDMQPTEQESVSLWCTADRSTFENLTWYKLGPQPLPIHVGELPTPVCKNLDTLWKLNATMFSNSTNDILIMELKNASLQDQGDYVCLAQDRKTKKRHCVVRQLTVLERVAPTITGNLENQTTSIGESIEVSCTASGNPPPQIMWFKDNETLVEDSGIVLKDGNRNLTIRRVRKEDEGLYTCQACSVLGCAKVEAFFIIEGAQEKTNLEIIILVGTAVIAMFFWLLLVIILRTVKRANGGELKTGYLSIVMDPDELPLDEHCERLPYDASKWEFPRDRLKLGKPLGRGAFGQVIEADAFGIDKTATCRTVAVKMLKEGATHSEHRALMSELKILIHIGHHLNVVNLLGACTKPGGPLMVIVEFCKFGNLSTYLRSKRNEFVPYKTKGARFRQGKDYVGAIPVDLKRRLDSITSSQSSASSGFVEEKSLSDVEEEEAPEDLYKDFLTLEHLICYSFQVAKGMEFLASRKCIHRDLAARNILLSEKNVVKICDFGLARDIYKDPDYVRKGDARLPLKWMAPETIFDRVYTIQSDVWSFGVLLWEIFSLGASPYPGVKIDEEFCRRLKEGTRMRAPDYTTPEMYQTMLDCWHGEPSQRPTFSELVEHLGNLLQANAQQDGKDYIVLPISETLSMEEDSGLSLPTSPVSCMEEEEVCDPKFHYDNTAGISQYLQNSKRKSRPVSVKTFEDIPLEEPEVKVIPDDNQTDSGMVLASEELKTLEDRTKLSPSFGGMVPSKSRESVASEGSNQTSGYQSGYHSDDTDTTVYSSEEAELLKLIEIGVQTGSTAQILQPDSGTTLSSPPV
reportedMetric: Kd (nM)
A number alone suffices; assume nM.

Note Kd for the compound shown: O=c1c2ccccc2nc2n1CCc1c-2[nH]c2ccccc12
471
